Target desc: MtBPL (Mycobacterium tuberculosis)
Experimental setup: calculated from ΔG (displacement) and ΔH (direct titration)
// boundary case: -TΔS equal to 8 kcal/mol maps to not satisfied; strictly smaller maps to satisfied

# Chemical string, Target desc, Category
rows = [
    ("CCN(CC)CC.Nc1ncnc2c1ncn2[C@H]1C=C[C@@H](CNS(=O)(=O)NC(=O)CCCC[C@@H]2SC[C@@H]3NC(=O)N[C@@H]32)C1", "MtBPL (Mycobacterium tuberculosis)", "not satisfied"),
    ("CCN(CC)CC.Nc1ncnc2c1ncn2[C@@H]1O[C@H](CNS(=O)(=O)NC(=O)CCCC[C@@H]2SC[C@@H]3NC(=O)N[C@@H]32)[C@@H](O)[C@H]1F", "MtBPL (Mycobacterium tuberculosis)", "not satisfied"),
    ("CCN(CC)CC.Nc1ncnc2c1ncn2[C@@H]1O[C@H](CNS(=O)(=O)NC(=O)CCCC[C@@H]2SC[C@@H]3NC(=O)N[C@@H]32)[C@@H](O)[C@H]1N", "MtBPL (Mycobacterium tuberculosis)", "satisfied"),
]

====

Target desc: MtBPL (Mycobacterium tuberculosis, UniProt I6YFP0)
Sequence (I6YFP0 whole entry, looked up): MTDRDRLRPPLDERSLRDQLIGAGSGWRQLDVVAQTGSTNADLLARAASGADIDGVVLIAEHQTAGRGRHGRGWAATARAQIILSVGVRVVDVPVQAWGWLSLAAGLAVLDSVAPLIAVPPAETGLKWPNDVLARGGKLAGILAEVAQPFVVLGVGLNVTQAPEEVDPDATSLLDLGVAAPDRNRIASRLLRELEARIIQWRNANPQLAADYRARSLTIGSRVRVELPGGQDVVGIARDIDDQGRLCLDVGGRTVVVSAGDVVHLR
Experimental setup: direct titration ITC, 25 °C
# ΔH values compiled below

# Molecule, Value units, ΔH
records = [
    ("CCN(CC)CC.Nc1ncnc2c1ncn2[C@H]1C=C[C@@H](CNS(=O)(=O)NC(=O)CCCC[C@@H]2SC[C@@H]3NC(=O)N[C@@H]32)C1 [Compound 34]", "kcal/mol", -22.1),
    ("CCN(CC)CC.[N-]=[N+]=N[C@@H]1[C@H](O)[C@@H](CNS(=O)(=O)NC(=O)CCCC[C@@H]2SC[C@@H]3NC(=O)N[C@@H]32)O[C@H]1n1cnc2c(N)ncnc21 [Compound 46]", "kcal/mol", -23.2),
    ("CCN(CC)CC.Nc1ncnc2c1ncn2[C@@H]1O[C@H](CNS(=O)(=O)NC(=O)CCCC[C@@H]2SC[C@@H]3NC(=O)N[C@@H]32)C[C@H]1O [Compound 87]", "kcal/mol", -21.4),
    ("CCN(CC)CC.Nc1ncnc2c1ncn2[C@H]1CC[C@@H](CNS(=O)(=O)NC(=O)CCCC[C@@H]2SC[C@@H]3NC(=O)N[C@@H]32)C1 [Compound 36]", "kcal/mol", -23.5),
]

====

Target desc: MtBPL (Mycobacterium tuberculosis)
Experimental setup: calculated from ΔG (displacement) and ΔH (direct titration)
Here the recorded -TΔS is given for each entry.
Endpoint label: -TΔS

# Chemical string, Result
records = [
    ("CCN(CC)CC.Nc1ncnc2c1ncn2[C@@H]1O[C@H](COS(=O)(=O)NC(=O)CCCC[C@@H]2SC[C@@H]3NC(=O)N[C@@H]32)[C@@H](O)[C@@H]1F", "14.7 ± 0.5 kcal/mol"),
    ("CCN(CC)CC.Nc1ncnc2c1ncn2[C@H]1CNC[C@@H](COS(=O)(=O)NC(=O)CCCC[C@@H]2SC[C@@H]3NC(=O)N[C@@H]32)O1", "5.9 ± 0.1 kcal/mol"),
    ("CCN(CC)CC.Nc1ncnc2c1ncn2[C@@H]1O[C@H](CNS(=O)(=O)NC(=O)CCCC[C@@H]2SC[C@@H]3NC(=O)N[C@@H]32)C[C@H]1O", "8.8 ± 0.6 kcal/mol"),
    ("CCN(CC)CC.Nc1ncnc2c1ncn2[C@H]1CC[C@@H](CNS(=O)(=O)NC(=O)CCCC[C@@H]2SC[C@@H]3NC(=O)N[C@@H]32)C1", "10.7 ± 0.4 kcal/mol"),
    ("[N-]=[N+]=N[C@H]1[C@H](O)[C@@H](COS(=O)(=O)NC(=O)CCCC[C@@H]2SC[C@@H]3NC(=O)N[C@@H]32)O[C@H]1n1cnc2c(N)ncnc21", "14.9 ± 0.1 kcal/mol"),
    ("CCN(CC)CC.[N-]=[N+]=N[C@@H]1[C@H](O)[C@@H](CNS(=O)(=O)NC(=O)CCCC[C@@H]2SC[C@@H]3NC(=O)N[C@@H]32)O[C@H]1n1cnc2c(N)ncnc21", "10.9 ± 0.3 kcal/mol"),
    ("Nc1ncnc2c1ncn2[C@@H]1O[C@H](CNS(=O)(=O)NC(=O)CCCC[C@@H]2SC[C@@H]3NC(=O)N[C@@H]32)[C@@H](O)[C@H]1O", "6.6 ± 0.1 kcal/mol"),
]
